Ref: paper PMC12568630

Test system: hAGT (Homo sapiens, UniProt P16455)
Construct: gene MGMT; parental hAGT
Sequence (P16455 whole entry): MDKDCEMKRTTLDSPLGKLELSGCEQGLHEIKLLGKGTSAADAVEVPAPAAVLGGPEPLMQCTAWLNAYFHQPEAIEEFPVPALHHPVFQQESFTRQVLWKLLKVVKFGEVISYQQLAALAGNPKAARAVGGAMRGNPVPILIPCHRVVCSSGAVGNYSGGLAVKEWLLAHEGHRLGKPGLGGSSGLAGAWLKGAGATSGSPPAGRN
Experiment: biochemical
Parameters: fluorescence polarization labeling kinetics of purified tag proteins with TMR substrates, apparent second-order rate constant
Recorded conditions: read-out: hAGT kapp x 10^3
Property label: kinact/KI (M⁻¹ s⁻¹)

- Compound: "CN(C)c1ccc2c(-c3cc(C(=O)NCc4ccc(COc5cc(C(F)(F)F)nc(N)n5)cc4F)ccc3C(=O)[O-])c3ccc(=[N+](C)C)cc-3oc2c1 [compound 30, TF–TMR]"
  Measure unit: "M⁻¹ s⁻¹"
  kinact/KI: 520
- Compound: "CN(C)c1ccc2c(-c3cc(C(=O)NCc4ccc(COc5cc(Cl)nc(N)n5)cc4F)ccc3C(=O)[O-])c3ccc(=[N+](C)C)cc-3oc2c1 [compound 22, CF–TMR]"
  Measure unit: "M⁻¹ s⁻¹"
  kinact/KI: 550
- Compound: "CN(C)c1ccc2c(-c3cc(C(=O)NCc4ccc(COc5cc(Cl)nc(N)n5)cc4)ccc3C(=O)[O-])c3ccc(=[N+](C)C)cc-3oc2c1 [CP–TMR]"
  Measure unit: "M⁻¹ s⁻¹"
  kinact/KI: 800
- Compound: "CN(C)c1ccc2c(-c3cc(C(=O)NCc4ccc(COc5cc(C(F)(F)F)nc(N)n5)cc4)ccc3C(=O)[O-])c3ccc(=[N+](C)C)cc-3oc2c1 [compound 4, CF3P–TMR]"
  Measure unit: "M⁻¹ s⁻¹"
  kinact/KI: 640
